Biological target: T1, recombinant human Ang4 carrier-free (R&D Systems, Cat#964-AN-025/CF) (human, UniProt Q9Y264 25-503, limits assumed)
T1 construct: Bought recombinant protein; also called angiopoietin 4
T1 sequence: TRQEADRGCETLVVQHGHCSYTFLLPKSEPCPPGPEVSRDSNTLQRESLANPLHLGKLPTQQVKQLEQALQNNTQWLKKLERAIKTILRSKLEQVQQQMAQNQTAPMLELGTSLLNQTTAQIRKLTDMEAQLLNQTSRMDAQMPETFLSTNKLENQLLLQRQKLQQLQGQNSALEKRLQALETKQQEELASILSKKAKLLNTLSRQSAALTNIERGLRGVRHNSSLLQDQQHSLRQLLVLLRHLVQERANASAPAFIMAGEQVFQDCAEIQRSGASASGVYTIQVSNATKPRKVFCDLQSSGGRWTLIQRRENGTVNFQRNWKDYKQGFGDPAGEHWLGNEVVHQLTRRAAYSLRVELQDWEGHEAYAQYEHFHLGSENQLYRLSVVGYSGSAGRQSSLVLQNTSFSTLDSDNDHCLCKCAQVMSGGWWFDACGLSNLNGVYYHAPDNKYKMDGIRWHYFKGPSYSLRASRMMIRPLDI
Assay: SPR (BIAcore), Ang4 immobilised on CM5, peptide 1.25-0.039 µM, 1:1 Langmuir fit
pKd: −log10 of the molar value.
measured metric: pKd

binder="Ac-DLMETVNNLLTMMSTSNSAKD-NH2 (MW 2356.8) [CGEN-G6 (SEQ ID NO: 6)]" observed_measurement=7.66
